System: Zika virus NS2B-NS3 protease
Experiment: Primary screen GU AMC qHTS for Zika virus inhibitors (AID 1347154); further: nearly all actives have a fitted effect of over 70% in size
Settings: Zika NS2B-NS3 unlinked protease, AMC fluorogenic substrate; series mostly up to 54.1 µM
Inconclusive results are not listed. Active and inactive are the calls of the source. The call rests on the fitted dose curve; in most records, active means well fitted inhibition curve with a large enough effect; inconclusive means small, poorly fitted or top-dose-only effect; inactive means flat fitted curve, though single readings scatter.
Test readout: outcome

// worked examples, outcome included
CC[C@H](C)C(=O)O[C@H]1C[C@@H](C)C=C2C=C[C@H](C)[C@H](CC[C@@H]3C[C@@H](O)CC(=O)O3)[C@H]21: inactive
Cn1c(=O)c2c(ncn2CC(O)CO)n(C)c1=O (stereo unspecified): inactive
Cc1ncc([N+](=O)[O-])n1CCO: inactive
CNNCc1ccc(C(=O)NC(C)C)cc1: inactive
CC1=C(C(=O)O)N2C(=O)[C@@H](NC(=O)C(N)c3ccccc3)[C@H]2SC1 (stereo partly specified): inactive

Turning to the following compound.
Query: Look up outcome: C1CCC(C(CC2CCCCN2)C2CCCCC2)CC1 (stereo unspecified)
Result: inactive
